- assayed target: hCB1 receptor (Homo sapiens (Human), UniProt P21554)
- Sequence (P21554 whole entry): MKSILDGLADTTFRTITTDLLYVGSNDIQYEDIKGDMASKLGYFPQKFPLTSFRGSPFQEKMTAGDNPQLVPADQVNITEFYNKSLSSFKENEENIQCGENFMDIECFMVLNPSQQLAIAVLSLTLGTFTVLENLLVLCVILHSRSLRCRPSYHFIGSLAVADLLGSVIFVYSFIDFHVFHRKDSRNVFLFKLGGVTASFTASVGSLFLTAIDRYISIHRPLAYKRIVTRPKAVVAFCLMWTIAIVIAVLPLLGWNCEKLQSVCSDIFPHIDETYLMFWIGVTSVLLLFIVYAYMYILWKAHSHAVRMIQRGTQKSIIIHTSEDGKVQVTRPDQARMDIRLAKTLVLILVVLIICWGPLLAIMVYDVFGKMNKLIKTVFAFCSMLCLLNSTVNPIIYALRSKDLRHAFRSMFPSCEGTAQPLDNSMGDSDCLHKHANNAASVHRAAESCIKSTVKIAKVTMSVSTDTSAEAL
- test: Radioligand CB receptor binding, [3H]-CP55,940 displacement on CHO-K1 hCB1 membranes
- run parameters: Table 3
Answer each item with its documented CB1 receptor binding % binding at 10 μM.
Give just the numeric value; % need not be written.

Data point: CCOc1cc(/C=C2\S/C(=N\c3ccc(C)cc3)N(c3ccc(C)cc3)C2=O)ccc1O [Compound 12] ; CB1 receptor binding % binding at 10 μM = 35

// sample O=C1/C(=C/c2cc(Cl)c(O)c(Cl)c2)S/C(=N\c2ccccc2)N1Cc1ccco1 [Compound 23] , its CB1 receptor binding % binding at 10 μM was 24

Form: compound = CCOc1cc(/C=C2\S/C(=N\c3ccc(F)cc3)N(c3ccc(F)cc3)C2=O)ccc1O [Compound 2] ; CB1 receptor binding % binding at 10 μM = 33

Form field CB1 receptor binding % binding at 10 μM, entry C=CCc1cc(/C=C2\S/C(=N\c3ccc(C(=O)OC)cc3)N(C)C2=O)cc(OCC)c1O [Compound 16] : 15
